Measured fluorescence intensity, +F-LPS (F-LPS alone) of individual entries
Biological target: LPS-Binding Protein (LBP) (Oryctolagus cuniculus, UniProt P17454)
Construct: isolated from acute phase rabbit serum; from tissue; host or cells: acute phase rabbit serum
Sequence (P17454 27-482): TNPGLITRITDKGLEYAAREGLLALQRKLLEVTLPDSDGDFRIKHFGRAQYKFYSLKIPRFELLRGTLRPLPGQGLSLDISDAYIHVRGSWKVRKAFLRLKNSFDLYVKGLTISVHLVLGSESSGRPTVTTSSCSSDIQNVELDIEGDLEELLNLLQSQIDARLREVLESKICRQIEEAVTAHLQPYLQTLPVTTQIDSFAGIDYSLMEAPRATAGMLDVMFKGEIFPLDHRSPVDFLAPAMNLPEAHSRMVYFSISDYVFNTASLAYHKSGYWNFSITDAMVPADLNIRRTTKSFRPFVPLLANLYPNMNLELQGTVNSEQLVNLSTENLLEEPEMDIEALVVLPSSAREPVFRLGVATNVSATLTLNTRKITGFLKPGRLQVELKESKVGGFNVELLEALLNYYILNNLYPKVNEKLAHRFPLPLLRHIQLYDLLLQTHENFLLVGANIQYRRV
Assay: Fluorescence spectroscopy assay of F-LPS binding to LBP
Design: species or system rabbit
Settings: 10 ng/ml F-LPS in PBS/2 mM EDTA pH 7.4, before peptide addition (baseline of the run)

GET /value?item= KVRKAFLRLKNSFDL [Peptide 2] &field=fluorescence intensity, +F-LPS (F-LPS alone) returns 900 FIU

GET /value?item= GIDYSLMEAPRATA [Peptide 5] &field=fluorescence intensity, +F-LPS (F-LPS alone) returns 750 FIU

====

Biological target: LPS-Binding Protein (LBP) (Oryctolagus cuniculus, UniProt P17454)
Construct: isolated from acute phase rabbit serum; from tissue; host or cells: acute phase rabbit serum
Sequence (P17454 27-482): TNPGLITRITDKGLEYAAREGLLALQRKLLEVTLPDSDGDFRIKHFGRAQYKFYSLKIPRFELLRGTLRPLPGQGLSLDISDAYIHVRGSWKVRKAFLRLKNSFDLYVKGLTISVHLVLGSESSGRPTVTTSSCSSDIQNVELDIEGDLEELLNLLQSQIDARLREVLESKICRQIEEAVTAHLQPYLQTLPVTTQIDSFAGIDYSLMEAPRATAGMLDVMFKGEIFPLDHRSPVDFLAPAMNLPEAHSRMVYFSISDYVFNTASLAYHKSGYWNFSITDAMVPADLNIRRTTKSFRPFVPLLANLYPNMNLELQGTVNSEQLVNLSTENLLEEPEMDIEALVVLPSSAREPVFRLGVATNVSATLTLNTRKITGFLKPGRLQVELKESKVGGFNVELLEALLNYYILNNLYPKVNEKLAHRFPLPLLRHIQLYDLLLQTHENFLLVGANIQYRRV
Assay: Fluorescence spectroscopy assay of F-LPS binding to LBP
Design: species or system rabbit
Details: 10 ng/ml F-LPS + 1 mM polypeptide + 1 ug/ml rabbit LBP; no-peptide control 2700 (Experiment A, peptides 1-4), 2300 (Experiment B, peptides 5-8)
assay_metric: fluorescence intensity, +LBP (F-LPS+peptide+LBP)
Kindly format the answer as number then unit.

// below: answered sequences
{"columns": ["query_sequence", "result"],
 "data": [
  ["QTHENFLLVGANIQYRRV [Peptide 8]", "2300 FIU"],
  ["CSSDIQNVELDIEGDLEELLNLLQSQIDARLREVLESKI [Peptide 3]", "2100 FIU"],
  ["ATLTLNTRKIT [Peptide 7]", "1300 FIU"],
  ["LQPYLQTLPVTTQIDS [Peptide 4]", "2300 FIU"],
  ["PSSAREPVFRLGVAT [Peptide 6]", "1500 FIU"]
]}

Param item: KVRKAFLRLKNSFDL [Peptide 2] ; param system: LPS-Binding Protein (LBP) (Oryctolagus cuniculus, UniProt P17454); output fluorescence intensity, +LBP (F-LPS+peptide+LBP): 800 FIU

Param item: TNPGLITRITDKGL [Peptide 1] ; param system: LPS-Binding Protein (LBP) (Oryctolagus cuniculus, UniProt P17454); output fluorescence intensity, +LBP (F-LPS+peptide+LBP): 2400 FIU

Param item: GIDYSLMEAPRATA [Peptide 5] ; param system: LPS-Binding Protein (LBP) (Oryctolagus cuniculus, UniProt P17454); output fluorescence intensity, +LBP (F-LPS+peptide+LBP): 2000 FIU
